assay: Clearance in Sprague-Dawley rat at 0.25 mg/kg, iv; assay type: ADME, organism-based; parameters: dose 0.25 mg/kg, route intravenous; details: Sprague-Dawley, in vivo
measurement.name: log10(clearance) (log10 of the value in mL/min/kg)
Remember, log10 of clearance, in mL/min/kg.

> print(dat)
                    structure.smiles.string  recorded.number
1  Cc1cc(-c2cc(F)c3nnc([C@@H](C)c4ccc5ncccc5c4)n3c2)sn1             1.41
2  COc1cnc2ccc(C(F)(F)c3nnc4c(F)cc(-c5cscn5)cn34)cc2c1             0.18

Please examine the following record next.
# compound COc1cnc2ccc([C@@](C)(F)c3nnc4c(F)cc(-c5cc(C)ns5)cn34)cc2c1 ; its log10(clearance) = 1.35

====

experiment: Oral bioavailability in Sprague-Dawley rat at 2 mg/kg; assay type: ADME, organism-based; conditions: in vivo
Parameter bioavailability: see the listing below.
State just the number; it will be interpreted in %.

> print(dat)
                    structure.smiles.string  measurement.name  recorded.number
1  COc1cnc2ccc([C@@](C)(F)c3nnc4c(F)cc(-c5cnn(C)c5)cn34)cc2c1   bioavailability               27
2  COc1cnc2ccc([C@@](C)(F)c3nnc4c(F)cc(-c5cc(C)ns5)cn34)cc2c1   bioavailability               10
3  COc1cnc2ccc(C(F)(F)c3nnc4c(F)cc(-c5cscn5)cn34)cc2c1   bioavailability                9
4  COc1cnc2ccc([C@H](C)c3nnc4c(F)cc(-c5cnn(C)c5)cn34)cc2c1   bioavailability               13
5  COc1cnc2ccc([C@@](C)(F)c3nnc4c(F)cc(-c5cc(C)no5)cn34)cc2c1   bioavailability               38

Now look at this entry.
Sure, the documented bioavailability for COc1cnc2ccc(C(F)(F)c3nnc4c(F)cc(-c5cc(C)no5)cn34)cc2c1 is 35

====

The entries below come with measured Vd values attached.
assay: Volume of distribution at steady state in Sprague-Dawley rat at 0.25 mg/kg, iv; type: ADME, organism-based; set-up: dose 0.25 mg/kg, route intravenous; conditions: in vivo, read-out: Vdss
The reply should be a number in L/kg, with the unit left off.

Some compounds with known Vd results, for comparison:
> print(dat)
                    structure.smiles.string  recorded.number
1  COc1cnc2ccc([C@@](C)(F)c3nnc4c(F)cc(-c5cc(C)no5)cn34)cc2c1             0.79
2  COc1cnc2ccc([C@H](C)c3nnc4c(F)cc(-c5cn(C)cn5)cn34)cc2c1             0.37

Query COc1cnc2ccc(C(F)(F)c3nnc4c(F)cc(-c5cscn5)cn34)cc2c1 yields Vd of 0.18

====

target: Hepatocyte growth factor receptor (Homo sapiens, UniProt P08581); test: Inhibition of recombinant c-Met kinase domain (unknown origin) incubated for 30 mins using gastrin peptide substrate by HTRF assay
Sequence (P08581 whole entry, the tested form may be a part): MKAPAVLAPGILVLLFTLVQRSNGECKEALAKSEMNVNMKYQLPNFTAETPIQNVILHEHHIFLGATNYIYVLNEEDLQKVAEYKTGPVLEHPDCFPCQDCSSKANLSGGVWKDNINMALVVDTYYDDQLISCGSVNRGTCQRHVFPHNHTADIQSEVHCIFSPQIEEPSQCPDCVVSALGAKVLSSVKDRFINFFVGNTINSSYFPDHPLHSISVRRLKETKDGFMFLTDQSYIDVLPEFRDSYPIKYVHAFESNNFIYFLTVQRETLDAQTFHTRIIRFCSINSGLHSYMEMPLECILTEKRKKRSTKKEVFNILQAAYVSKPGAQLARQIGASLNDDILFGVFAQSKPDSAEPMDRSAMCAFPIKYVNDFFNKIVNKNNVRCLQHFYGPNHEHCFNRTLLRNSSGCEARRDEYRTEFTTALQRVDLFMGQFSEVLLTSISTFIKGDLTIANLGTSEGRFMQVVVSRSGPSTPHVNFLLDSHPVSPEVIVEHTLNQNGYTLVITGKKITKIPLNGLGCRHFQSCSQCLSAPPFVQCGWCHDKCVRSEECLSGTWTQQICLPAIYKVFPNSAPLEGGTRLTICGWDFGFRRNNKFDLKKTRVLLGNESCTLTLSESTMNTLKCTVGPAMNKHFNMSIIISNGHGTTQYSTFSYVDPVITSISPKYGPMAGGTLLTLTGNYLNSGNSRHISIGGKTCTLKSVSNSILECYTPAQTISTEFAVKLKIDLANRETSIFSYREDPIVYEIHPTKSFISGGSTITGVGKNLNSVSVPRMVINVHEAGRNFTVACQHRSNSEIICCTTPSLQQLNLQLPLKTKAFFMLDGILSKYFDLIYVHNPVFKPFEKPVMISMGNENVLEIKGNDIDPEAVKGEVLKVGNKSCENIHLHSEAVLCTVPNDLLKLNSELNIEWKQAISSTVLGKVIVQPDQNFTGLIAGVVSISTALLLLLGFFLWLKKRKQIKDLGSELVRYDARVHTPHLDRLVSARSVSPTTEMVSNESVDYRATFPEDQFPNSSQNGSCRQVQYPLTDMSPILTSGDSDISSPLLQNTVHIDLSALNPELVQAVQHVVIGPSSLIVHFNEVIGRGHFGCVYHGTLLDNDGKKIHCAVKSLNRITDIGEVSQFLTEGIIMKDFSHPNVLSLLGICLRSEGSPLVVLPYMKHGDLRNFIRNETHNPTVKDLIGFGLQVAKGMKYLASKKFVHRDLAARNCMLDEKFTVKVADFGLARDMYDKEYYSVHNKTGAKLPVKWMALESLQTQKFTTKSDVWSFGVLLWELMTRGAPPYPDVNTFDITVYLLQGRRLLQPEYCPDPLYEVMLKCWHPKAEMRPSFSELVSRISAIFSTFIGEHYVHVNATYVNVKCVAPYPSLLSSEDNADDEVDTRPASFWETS
Below, each entry is listed with its recorded IC50.
Field: numeric (nM). Do not append units.

> print(dat)
                    structure.smiles.string  measurement.name  recorded.number
1  COc1cnc2ccc(C(F)(F)c3nnc4c(F)cc(-c5cnn(C)c5)cn34)cc2c1              IC50               12
2  Cc1cc(-c2cc(F)c3nnc(C(F)(F)c4ccc5ncccc5c4)n3c2)on1              IC50                9

Recorded IC50 (compound Cn1cc(-c2cc(F)c3nnc(Cc4ccc5nccnc5c4)n3c2)cn1 ): 182

Reported IC50 of COc1cnc2ccc(C(F)(F)c3nnc4c(F)cc(-c5cc(C)no5)cn34)cc2c1 : 3

====

Measured half-life by item
assay: Half life in Sprague-Dawley rat at 0.25 mg/kg, iv; assay type: ADME, organism-based; set-up: dose 0.25 mg/kg, route intravenous; conditions: in vivo
# number only, unit h dropped from output

Please review the entries below; each comes with its answer.
> print(dat)
                    structure.smiles.string  measurement.name  units  recorded.number
1  COc1cnc2ccc([C@H](C)c3nnc4c(F)cc(-c5cn(C)cn5)cn34)cc2c1         half-life      h              1.3
2  COc1cnc2ccc([C@@](C)(F)c3nnc4c(F)cc(-c5cc(C)ns5)cn34)cc2c1         half-life      h              1.1
3  Fc1cc(-c2cnn(C3CC3)c2)cn2c(C(F)(F)c3ccc4ncccc4c3)nnc12         half-life      h              4.4
4  Cc1cc(-c2cc(F)c3nnc([C@@H](C)c4ccc5ncccc5c4)n3c2)sn1         half-life      h             0.33
5  COc1cnc2ccc([C@H](C)c3nnc4c(F)cc(-c5cc(C)no5)cn34)cc2c1         half-life      h              2.5
6  COc1cnc2ccc([C@@](C)(F)c3nnc4c(F)cc(-c5cc(C)no5)cn34)cc2c1         half-life      h              2.7
7  COc1cnc2ccc([C@H](C)c3nnc4c(F)cc(-c5cnn(C)c5)cn34)cc2c1         half-life      h              1.8

Briefly, half-life measured for COc1cnc2ccc([C@H](C)c3nnc4c(F)cc(-c5cc(C)ns5)cn34)cc2c1 : 2.8

====

assay: Clearance in Sprague-Dawley rat at 0.25 mg/kg, iv; format: ADME, organism-based; design: dose 0.25 mg/kg, route intravenous; settings: Sprague-Dawley, in vivo
measurement.name: clearance (mL/min/kg)
The figure you give is taken to be in mL/min/kg; do not add the unit.

Sample records with clearance:
> print(dat)
                    structure.smiles.string      units  recorded.number
1  Cn1cc(-c2cc(F)c3nnc(C(F)(F)c4ccc5ncccc5c4)n3c2)cn1  mL/min/kg            0.167
2  Cc1cc(-c2cc(F)c3nnc(C(F)(F)c4ccc5ncccc5c4)n3c2)on1  mL/min/kg            0.667
3  COc1cnc2ccc([C@@](C)(F)c3nnc4c(F)cc(-c5cnn(C)c5)cn34)cc2c1  mL/min/kg              4.5
4  COc1cnc2ccc([C@@](C)(F)c3nnc4c(F)cc(-c5cc(C)no5)cn34)cc2c1  mL/min/kg             4.17
5  Fc1cc(-c2cnn(C3CC3)c2)cn2c(C(F)(F)c3ccc4ncccc4c3)nnc12  mL/min/kg            0.167

For the next question, use this molecule.
clearance for Fc1cc(-c2cscn2)cn2c(C(F)(F)c3ccc4ncccc4c3)nnc12 is 27.8

====

target: Hepatocyte growth factor receptor (Homo sapiens); experiment: Inhibition of recombinant c-Met kinase domain (unknown origin) incubated for 30 mins using gastrin peptide substrate by HTRF assay
measurement.name: pIC50
Scale explanation: pIC50 corresponds to minus log10 of a concentration expressed in moles per litre.

Some solved cases for reference:
> print(dat)
                    structure.smiles.string  recorded.number
1  COc1cnc2ccc([C@H](C)c3nnc4c(F)cc(-c5cn(C)cn5)cn34)cc2c1             9.00
2  COc1cnc2ccc([C@@](C)(F)c3nnc4c(F)cc(-c5cc(C)ns5)cn34)cc2c1             8.30

Looking up Cc1cc(-c2cc(F)c3nnc([C@@](C)(F)c4ccc5ncccc5c4)n3c2)sn1 , I found its pIC50 recorded as 6.11

# pIC50 of COc1cnc2ccc([C@H](C)c3nnc4c(F)cc(-c5cc(C)ns5)cn34)cc2c1 = 8.05

For CC[C@@H](c1ccc2ncc(OC)cc2c1)c1nnc2c(F)cc(-c3cc(C)no3)cn12 the molecule record lists pIC50 as 7.55

Recorded result, COc1ccc2c(OCc3nnc4c(F)cc(-c5ccccc5)cn34)ccnc2c1 , pIC50: 8.15

Looking up Fc1cc(-c2cscn2)cn2c(C(F)(F)c3ccc4ncccc4c3)nnc12 , I found its pIC50 recorded as 8.40

Kindly note the recorded pIC50 for COc1cnc2ccc(Cc3nnc4c(F)cc(-c5cnn(C)c5)cn34)cc2c1 , which is 7.96

Input Fc1cc(-c2ccccc2)cn2c(C(F)(F)c3ccc4ncccc4c3)nnc12 . Output pIC50: 7.64

// sample COCCOc1cnc2ccc([C@H](C)c3nnc4c(F)cc(-c5cc(C)no5)cn34)cc2c1 , its pIC50 was 9.00
